tested on: 217524-143-R1-J4-PDC spheroids with HUVEC/MSC, viability; test: Anticancer human tumor 217524-143-R1-J4-PDC patient-derived pancreatic carcinoma cell line growth inhibition [CLK]; details: second compound 0.0316 µM; first compound 0.1 µM; stronger effect = lower value;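 also: spheroids exposed to agents for seven days before reading; 100% = DMSO vehicle control viability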
attribute-measured: viability, T/C

INSERT INTO measurements (compound, attribute_measured, result_value) VALUES
  ('O=C(c1cc(Cc2n[nH]c(=O)c3ccccc23)ccc1F)N1CCN(C(=O)C2CC2)CC1 + CNC(=O)c1ccc(Nc2nc(OC3CCCC3)c3c(-c4ccc5nc(C)oc5c4)c[nH]c3n2)c(OC)c1', 'viability, T/C', '82.8%'),
  ('C#Cc1c(F)ccc2cc(O)cc(-c3ncc4c(N5CC6CCC(C5)N6)nc(OCC56CCCN5CC(F)C6)nc4c3F)c12 (stereo not given) + CN1CCN(c2cc(C(=O)Nc3cc4cc(-c5cnn(C)c5)ccc4cn3)ccn2)CC1', 'viability, T/C', '74.4%'),
  ('CCCS(=O)(=O)Nc1ccc(F)c(C(=O)c2c[nH]c3ncc(-c4ccc(Cl)cc4)cc23)c1F + CN1CCN(c2cc(C(=O)Nc3cc4cc(-c5cnn(C)c5)ccc4cn3)ccn2)CC1', 'viability, T/C', '69.2%'),
  ('Nc1ccn(C2OC(CO)C(O)C2(F)F)c(=O)n1 (stereo not given) + CNC(=O)c1ccc(Nc2nc(OC3CCCC3)c3c(-c4ccc5nc(C)oc5c4)c[nH]c3n2)c(OC)c1', 'viability, T/C', '31%'),
  ('COc1ccc([C@@H](O)c2cc(-c3ncnc4cc(N5CCOCC5)ccc34)c(F)cc2Cl)nn1 + CNC(=O)c1ccc(Nc2nc(OC3CCCC3)c3c(-c4ccc5nc(C)oc5c4)c[nH]c3n2)c(OC)c1', 'viability, T/C', '72%');
